The measured values listed here are drawn from patent US10683278B2.

- Target Or Test System: FLT-3 kinase domain recombinant protein (Homo sapiens)
- Construct: 50 μL FLT-3 kinase domain recombinant protein diluted with reaction buffer to initiate the reaction
- Sequence (P36888 610-943 limits assumed): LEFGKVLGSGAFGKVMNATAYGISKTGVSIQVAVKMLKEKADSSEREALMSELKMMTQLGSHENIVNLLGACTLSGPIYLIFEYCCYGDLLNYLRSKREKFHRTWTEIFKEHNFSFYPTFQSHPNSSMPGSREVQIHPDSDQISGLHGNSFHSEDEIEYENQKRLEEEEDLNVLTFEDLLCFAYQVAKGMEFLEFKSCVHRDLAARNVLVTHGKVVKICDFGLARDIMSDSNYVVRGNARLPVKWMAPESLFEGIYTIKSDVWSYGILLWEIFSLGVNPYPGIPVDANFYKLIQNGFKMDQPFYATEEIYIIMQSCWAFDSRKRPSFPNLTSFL
- Experimental Details: Inhibition rate on FLT3 kinase (ELISA)
- Type: biochemical
- Condition Parameters: compound 100 nM; two values per compound; 0.1 µM
The reader will find reported Inhibition rate (%) against receptor tyrosine kinase FLT-3 values listed item by item below.
Your answer should be a plain number; it is taken to be in %.

Compound	Measure Unit	Recorded Measurement
COc1cc2ncnc(Oc3ccc(NC(=O)c4cn5c6c(c(N7CCC(O)CC7)c(F)cc6c4=O)CCC5C)cc3F)c2cc1OC (stereo not shown) [TL4830031]	%	65.8

# returns recorded Inhibition rate (%) against receptor tyrosine kinase FLT-3 (system: FLT-3 kinase domain recombinant protein (Homo sapiens)) for CCc1ccc2c(c1)c(=O)c(C(=O)Nc1ccc(Oc3ncnc4[nH]cc(-c5cnn(C)c5)c34)c(F)c1)c(C)n2C [GDL5000038]
73.0

// same read-out, input: CCc1ccc2c(c1)c(=O)c(C(=O)Nc1ccc(Oc3ncnc4cc(OCCN5CCCC5)c(OC)cc34)c(F)c1)c(C)n2C [TL4830058]
75.8

// same read-out, input: Cc1c(C(=O)Nc2ccc(Oc3ncnc4[nH]cc(-c5ccccc5)c34)c(F)c2)c(=O)c2cc(C(C)C)ccc2n1C [TL50172]
72.9

// same read-out, input: CCc1ccc2c(c1)c(=O)c(C(=O)Nc1ccc(Oc3ncnc4cc(OCCCN5CCOCC5)c(OC)cc34)c(F)c1)c(C)n2C [GDL5000123]
83.8

// same read-out, input: CCc1ccc2c(c1)c(=O)c(C(=O)Nc1ccc(Oc3ncnc4cc(OC)c(OC)cc34)c(F)c1)c(C)n2C [TL4800191]
77.1

// same read-out, input: Cc1c(C(=O)Nc2ccc(Oc3ncnc4[nH]cc(-c5ccccc5)c34)c(F)c2)c(=O)c2cc(F)ccc2n1C [TL50087]
45.8

----------
- Experimental Details: In vivo pharmacokinetic and bioavailability experiments of rats
- Set-up: species or system SD rats
- Condition Parameters: Sprague-Dawley, rat, plasma; SD rats, iv, 5 mg/kg single dose
- Protocol: Pharmacokinetic and bioavailability experiments of rats. SD rats were administered orally (25 mg/kg) and intravenously (2.5 to 5 mg/kg) at a single dose. Animal blood samples were taken at appropriate time points after administration, heparin was added as anticoagulant, and same were centrifuged at 8000 rpm/min for 6 minutes, the supernatant was then taken and stored at −20° C. for HPLC-MS analysis. […] The oral bioavailability of each compound was calculated according to AUC data.
# binarize AUC(0-inf): threshold 20000 ng·h/mL inclusive, high side Yes, low side No

Field: example entries. Status: answers known.
Molecule	Group
CCc1ccc2c(c1)c(=O)c(C(=O)Nc1ccc(Oc3ncnc4cc(OCCN5CCCC5)c(OC)cc34)c(F)c1)c(C)n2C	Yes
CCc1ccc2c(c1)c(=O)c(C(=O)Nc1ccc(Oc3ncnc4cc(OCCCN5CCOCC5)c(OC)cc34)c(F)c1)c(C)n2C	Yes
CCc1ccc2c(c1)c(=O)c(C(=O)Nc1ccc(Oc3ncnc4cc(OCCCN5CCN(C)CC5)c(OC)cc34)c(F)c1)c(C)n2C	No
COc1cc2ncnc(Oc3ccc(NC(=O)c4cn5c6c(c(N7CCN(C)CC7)c(F)cc6c4=O)OCN5C)cc3F)c2cc1OC	No

Turning now to a further record.
Please indicate if the recorded AUC(0-inf) for COc1cc2ncnc(Oc3ccc(NC(=O)c4cn5c6c(c(N7CCC(O)CC7)c(F)cc6c4=O)CCC5C)cc3F)c2cc1OC (centres unmarked) meets or exceeds 20000 ng·h/mL.
Yes
